- assay comment: soluble on expression in E. coli; label from the status in PepcDB or PDB records

[
  {
    "entry sequence": "MGSDKIHHHHHHMYSCYNNFVKYALTMQFDIEVDVMYEVKLDAFNGPLDLLLHLIQKYEIDIYDIPMKALTEQYMQYVHAMNQLEINVASEYLVMASELLMIKSKLLLPQTSIEEDIEEDPREDLVGRLIEYQNYKEYTEILNTMKEERDLYFTKHPTDLTHLETNESWDPNQTIDLTELIVAYQRVKNRVELNTPKSVEIKKETFTIQQATAQVTERLKQHESFNFFSLFTFHEPVEQVVTHFLAILEMSKSGIVNIKQTKQFDDIDIIRGVNYSIG",
    "soluble on expression in E. coli": "not soluble"
  },
  {
    "entry sequence": "MGSDKIHHHHHHMLEVPVDRPVEALTIALLRDVKHACAQLGAKFVLAGATARDILMWHLHDIRAPVATRDVDVAVCAVSWESHDALIELLVQTQRFRRHSKQQQKLLFKRSAEDYEGELDIVPFGQIEGPPGEIHWPPDGDIVMTVLGFQEAVDTAQPVSIGEGLVVPVVTLPAFVLLKLIAWKDRRLMKNTDSADLLFVLRNYIDAGNIERTYEQATDLLKAANFDAGLAAAGLLGRDVRGLAYPDTRAALRALLQSADAYETLRLDLQARAAMLLGGFIDDSDALLAAFARELLTEENGSLNGTGPQVGSTGARA",
    "soluble on expression in E. coli": "not soluble"
  }
]

---

- assay comment: soluble on expression in E. coli; label from the status in PepcDB or PDB records
measured quantity: soluble on expression in E. coli

// known answers, use as guide
[
  {
    "entry sequence": "MSEQLVTPENVTTKDGKINLLDLNRQQMREFFKDLGEKPFRADQVMKWMYHYCCDNFDEMTDINKVLRGKLKEVAEIRAPEVVEEQRSSDGTIKWAIAVGDQRVETVYIPEDDRATLCVSSQVGCALECKFCSTAQQGFNRNLRVSEIIGQVWRAAKIVGAAKVTGQRPITNVVMMGMGEPLLNLNNVVPAMEIMLDDFGFGLSKRRVTLSTSGVVPALDKLGDMIDVALAISLHAPNDEIRDEIVPINKKYNIETFLAAVRRYLEKSNANQGRVTIEYVMLDHVNDGTEHAHQLAELLKDTPCKINLIPWNPFPGAPYGRSSNSRIDRFSKVLMSYGFTTIVRKTRGDDIDAACGQLAGDVIDRTKRTLRKRMQGEAIDIKAV",
    "soluble on expression in E. coli": "soluble"
  },
  {
    "entry sequence": "MSLWKSMTYYQKMIQEPSREKLLPDPLKYPYVQPPYTLVLEMKDVLVHPDWTYQTGWRFKKRPGVDKFLETLAANYEIVVFTADQGMTVFPILDALDPRGYIMYRLVRDATHFVDGHHVKNLDNLNRDLSKVIVVDWDPNSTKLHPENTLNIPRWTGNDDDAGLFDLMAMLVTIATSEVEDVRDVMTYYKSFENPLVKFRENQRLLAEQMAEREHEEKQRNLPAVQRWRPSFLEGHHHHHH",
    "soluble on expression in E. coli": "soluble"
  },
  {
    "entry sequence": "MNIDVEFHIRHNYPWNKLPANVRQSLGNSQREYEKQVVLYSIRNQLRYRNNLVKHVKKDERRYYEELLKYSRDHLMLYPYHLSDIVCYVCL",
    "soluble on expression in E. coli": "not soluble"
  },
  {
    "entry sequence": "MSLSDRVKKIESFTLTLPRETPYLGKPRPGEEPNGRGYLVRKANRTVYPTFDRSVLVRIETENGAVGWGETYGLVAPRATMEIIDDLLADFTIGRDPFDAAAIHDDLYDLMRVRGYTGGFYVDALAAIDIALWDLAGKLAGLPVCKLLGGQRRDRIAAYISGLPEDTRAKRAELAAAWQAKGFSSFKFASPVADDGVAKEMEILRERLGPAVRIACDMHWAHTASEAVALIKAMEPHGLWFAEAPVRTEDIDGLARVAASVSTAIAVGEEWRTVHDMVPRVARRALAIVQPEMGHKGITQFMRIGAYAHVHHIKVIPHATIGAGIFLAASLQASAALANVDCHEFQHSIFEPNRRLLVGDMDCLNGEYVVPTGPGLGVEPSKEAQGLLKKHEGHHHHHH",
    "soluble on expression in E. coli": "soluble"
  },
  {
    "entry sequence": "MKNTELEQLINDKLNSAAISDYAPNGLQVEGKETVQKIVTGVTASQALLDEAVRLQADAVIVHHGYFWKGESPVIRGMKRRRLKTLLANDINLYGWHLPLDAHPELGNNAQLAALLGITVKGEIEPLVPWGELSMPVPGLELASWIEARLGRKPLWCGDTGPENVQRVAWCTGGGQSFIDSAARFGVDAFITGEVSEQTIHSAREQGLHFYAAGHHATERGGIRALSEWLNENTALDVTFIDIPNPALEHHHHHH",
    "soluble on expression in E. coli": "soluble"
  }
]

# next sequence below
If you can, please state the reported soluble on expression in E. coli value of MMKTVLIYYPFSLAAERNSGSKLRPYEMHQAFLRWGAKEGVDVLLIAGTSAEREKQFQELRSQGKLDDVWFCYMENQTIPLWLTDPGHRSQRPFVDRDVLRYLKARNVPIGVFYRDVYWKFPDLYPLRGWKKAAMQMMYRWEERFYERYCDVIFLPSLEMGTYVAIRRPMVDLPPGGKQKPFQRFGTAKQPLNAIYVGGINNADYGLLLLLEAIRLANRRKPLVSLTVVCRKDEYERQPLAVKEELAALQVRVEHVSGEALDRLYAEMDFAFIPRRRSEYNDFSVPVKLVDYLSSGLPIVATACSAQKRLIEADGYGVICDDNPSSMAEAIAKMADMLEECRLRIAQTFMAKHSWEARVEKVKETLVGGLR .
not soluble
